Data origin, for the record: patent US20250320312A1

OD450 overview
# experimental target: Peptide 5: Biotin-…-[Tyr(PC)]-acid
# Sequence (peptide, as listed by the source): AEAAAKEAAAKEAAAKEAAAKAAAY
# assay notes: scFv ELISA
Respond numerically; units are OD450 and should not be typed.

>>> numeric_result("PcOxP_DB03_F10 (scFv, V domains shown, scFv in periplasmic extract) VH: EVQLLESGGGLVQPGGSLRLSCAASGFTFSDHYMEWVRQAPGKGLEWVAASRNSGNSYTTEYADSVKGRFTISRDNSKNTLYLQMNSLRAEDTAVYYCARDYYGSSYWYFDVWGQGTLVTVSS VL: DIQMTQSPSSLSASVGDRVTITCTASESLYSSKHSVHYLAWYQQKPGKAPKLLIYGASNRFIGVPSRFSGSGSGTDFTLTISSLQPEDFATYYCAQFYSYPLTFGGGTKVEIK")
0.85

Problem: State its OD450: PcOxP_DB02_C11 (scFv, V domains shown, scFv in periplasmic extract) VH: EVQLLESGGGLVQPGGSLRLSCAASGFTSSDFYMEWVRQAPGKGLEWVAASRNKANDYYTEYADSVKGRFTISRDNSKNTLYLQMNSLRAEDTAVYYCARDYYGSSYWYFDVWGQGTLVTVSS VL: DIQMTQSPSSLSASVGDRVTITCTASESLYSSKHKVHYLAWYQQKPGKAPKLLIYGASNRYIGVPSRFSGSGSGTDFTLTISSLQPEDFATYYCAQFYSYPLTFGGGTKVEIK
Result: 0.24

Problem: Name the recorded OD450 of the item PcOxP_DB04_C09 (scFv, V domains shown, scFv in periplasmic extract) VH: EVQLLESGGGLVQPGGSLRLSCAASGFTFSSYYMEWVRQAPGKGLEWVAASRNKANDYTTEYADSVKGRFTISRDNSKNTLYLQMNSLRAEDTAVYYCARDYYLSSYWYFDVWGQGTLVTVSS VL: DIVMTQSPDSLAVSLGERATINCTASESLYSPKHKVHYLAWYQQKPGQPPKLLIYGAENRYIGVPDRFSGSGSGTDFTLTISSLQAEDVAVYYCAQFYSYPLTFGGGTKVEIK in your answer.
Result: 1.21
